- Test system: RARa homodimer (NR concentration 270 nM)
- Experiment Description: PBM binding z-score (relative to random genomic background probes); higher = stronger binding; sequences stand for … in GC…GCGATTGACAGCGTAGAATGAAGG
I'd be grateful if you could share measured PBM binding z-score for these entries.
# print the numeric value only

Look up PBM binding z-score: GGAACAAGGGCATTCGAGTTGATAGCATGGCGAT
0.198

Look up PBM binding z-score: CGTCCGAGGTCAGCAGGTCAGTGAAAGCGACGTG
1.59

Look up PBM binding z-score: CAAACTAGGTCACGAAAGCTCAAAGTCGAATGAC
0.726

Look up PBM binding z-score: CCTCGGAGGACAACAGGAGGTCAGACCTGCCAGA
0.183

Look up PBM binding z-score: GCTATTAGTTGAAAGGGCAAACGAATGATTCTCG
1.28

Look up PBM binding z-score: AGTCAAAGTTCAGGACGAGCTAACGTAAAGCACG
0.728

Look up PBM binding z-score: CTACCAAGGTGAACAAGATCGTTGATTACTATTC
0.706

====

- Test system: RARg:RXRa (NR concentration 270 nM, RXRa partner concentration 90 nM)
- Experiment Description: PBM binding z-score (relative to random genomic background probes); higher = stronger binding; sequences stand for … in GC…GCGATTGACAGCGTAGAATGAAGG
Respond with Met for PBM binding z-score values of 2 and above, Not met for values below.

Has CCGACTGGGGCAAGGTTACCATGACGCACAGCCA a recorded PBM binding z-score greater than or equal to 2?
Not met

Has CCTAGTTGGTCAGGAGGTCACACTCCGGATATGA a recorded PBM binding z-score greater than or equal to 2?
Met

Has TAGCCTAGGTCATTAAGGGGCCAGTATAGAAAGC a recorded PBM binding z-score greater than or equal to 2?
Met

Has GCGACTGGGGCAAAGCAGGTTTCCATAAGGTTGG a recorded PBM binding z-score greater than or equal to 2?
Not met

Has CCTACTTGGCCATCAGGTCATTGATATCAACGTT a recorded PBM binding z-score greater than or equal to 2?
Met

Has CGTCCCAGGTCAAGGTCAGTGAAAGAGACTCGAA a recorded PBM binding z-score greater than or equal to 2?
Met

Has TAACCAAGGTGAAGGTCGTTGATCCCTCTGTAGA a recorded PBM binding z-score greater than or equal to 2?
Not met

Has CGTCCAAGGTCTATGCTAGGTCAGTGAAAGCATT a recorded PBM binding z-score greater than or equal to 2?
Not met

Has CATACAGGGTCAGCTAGGCCAGAGCAGGGACGGC a recorded PBM binding z-score greater than or equal to 2?
Met

Has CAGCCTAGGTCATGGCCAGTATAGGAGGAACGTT a recorded PBM binding z-score greater than or equal to 2?
Met

Has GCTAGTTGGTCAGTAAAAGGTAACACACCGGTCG a recorded PBM binding z-score greater than or equal to 2?
Not met

Has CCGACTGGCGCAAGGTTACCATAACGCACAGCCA a recorded PBM binding z-score greater than or equal to 2?
Not met

Has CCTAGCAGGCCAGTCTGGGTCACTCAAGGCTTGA a recorded PBM binding z-score greater than or equal to 2?
Not met

Has CAAACTAGGTGAAAGGTCAAAGTCGAGCCAACCA a recorded PBM binding z-score greater than or equal to 2?
Met

Has GCGACTGGGGCAAAGCAGGTTACCCTAAGGTTGG a recorded PBM binding z-score greater than or equal to 2?
Not met

Has CCTACGGGGCCATTCAGAGGTCATTGATCATATG a recorded PBM binding z-score greater than or equal to 2?
Met

Has CGAACTAGGTCAAGGACAATGAATCTCCGCACGC a recorded PBM binding z-score greater than or equal to 2?
Met

Has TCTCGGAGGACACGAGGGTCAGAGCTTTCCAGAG a recorded PBM binding z-score greater than or equal to 2?
Met

Has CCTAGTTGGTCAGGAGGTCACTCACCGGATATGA a recorded PBM binding z-score greater than or equal to 2?
Met

Has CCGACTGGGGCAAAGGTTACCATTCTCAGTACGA a recorded PBM binding z-score greater than or equal to 2?
Met

Has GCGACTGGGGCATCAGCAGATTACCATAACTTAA a recorded PBM binding z-score greater than or equal to 2?
Not met

Has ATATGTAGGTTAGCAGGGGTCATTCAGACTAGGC a recorded PBM binding z-score greater than or equal to 2?
Met

Has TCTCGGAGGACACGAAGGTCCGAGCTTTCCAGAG a recorded PBM binding z-score greater than or equal to 2?
Not met

Has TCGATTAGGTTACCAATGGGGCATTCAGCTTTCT a recorded PBM binding z-score greater than or equal to 2?
Not met

Has TCATGTAGGTAATACAGGTGAAAGTCGGCATCTA a recorded PBM binding z-score greater than or equal to 2?
Not met

Has CCTAATTGGTCAGGAGGTCACACACCGGATATGA a recorded PBM binding z-score greater than or equal to 2?
Met

====

- Tested on: RXRa DBDmut IVT, anti-RXR (DBD mutation: RXRa K156A/R161A, NR concentration 90 nM)
- Experiment Description: PBM binding z-score (relative to random genomic background probes); higher = stronger binding; sequences stand for … in GC…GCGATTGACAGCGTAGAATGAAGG
I'd be grateful if you could share measured PBM binding z-score for these entries.
# print the numeric value only

Recorded PBM binding z-score for TCTTGTAGATCAATAGCGGTTAAGAAAGTGCGCT with RXRa DBDmut IVT, anti-RXR (DBD mutation: RXRa K156A/R161A, NR concentration 90 nM), please?
0.457

Recorded PBM binding z-score for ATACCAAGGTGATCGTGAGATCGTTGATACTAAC with RXRa DBDmut IVT, anti-RXR (DBD mutation: RXRa K156A/R161A, NR concentration 90 nM), please?
0.00637

Recorded PBM binding z-score for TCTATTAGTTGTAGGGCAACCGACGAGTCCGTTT with RXRa DBDmut IVT, anti-RXR (DBD mutation: RXRa K156A/R161A, NR concentration 90 nM), please?
1.17

Recorded PBM binding z-score for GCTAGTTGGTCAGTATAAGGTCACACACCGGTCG with RXRa DBDmut IVT, anti-RXR (DBD mutation: RXRa K156A/R161A, NR concentration 90 nM), please?
0.514

Recorded PBM binding z-score for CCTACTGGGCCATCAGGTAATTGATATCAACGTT with RXRa DBDmut IVT, anti-RXR (DBD mutation: RXRa K156A/R161A, NR concentration 90 nM), please?
-0.203

Recorded PBM binding z-score for TCTACTAGGTCAACGATGGTCAGCTAATCTGCTA with RXRa DBDmut IVT, anti-RXR (DBD mutation: RXRa K156A/R161A, NR concentration 90 nM), please?
1.89

====

I'd be grateful if you could share measured PBM binding z-score for these entries.
- System: PPARg:RXRa 30nM:10nM, anti-RXR (NR concentration 30 nM, RXRa partner concentration 10 nM)
- Experiment Description: PBM binding z-score (relative to random genomic background probes); higher = stronger binding; sequences stand for … in GC…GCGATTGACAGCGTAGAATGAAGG
# print the numeric value only

Look up PBM binding z-score: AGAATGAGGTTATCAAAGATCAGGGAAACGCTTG
0.863

Look up PBM binding z-score: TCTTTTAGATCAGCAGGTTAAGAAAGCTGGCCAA
3.33

Look up PBM binding z-score: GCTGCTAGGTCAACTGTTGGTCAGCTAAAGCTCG
0.511

Look up PBM binding z-score: GCGGCTAGGTCAACTGATGGTCAGCTAAAGCTCG
0.0288

Look up PBM binding z-score: TGTTGTAGATCAATAGAGGTTAAGAAAGTGCGCT
0.473

Look up PBM binding z-score: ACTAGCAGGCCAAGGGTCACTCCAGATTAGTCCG
5.52

Look up PBM binding z-score: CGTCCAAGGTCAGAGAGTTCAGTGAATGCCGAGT
0.445

Look up PBM binding z-score: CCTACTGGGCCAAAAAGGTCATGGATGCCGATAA
1.68

Look up PBM binding z-score: ATATGTAGGTTATCGGGTCAATCAGTTTGCGCAT
3.84

Look up PBM binding z-score: GCTTGTAGATCAAGGTTAGGAAAGACTAAGCTAA
-0.199

Look up PBM binding z-score: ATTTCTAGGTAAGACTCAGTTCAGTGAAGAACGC
0.807

Look up PBM binding z-score: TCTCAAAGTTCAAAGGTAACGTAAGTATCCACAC
5.16
